# system_tested: T1, full-length human Tau (Tau441; 2N4R), recombinant (human, UniProt P10636 1-758)
# T1 construct: made in E. coli, His6-Smt3 tag removed; biotinylated through amines for Octet and phage work; also called r-Tau; recombinant Tau
# assay_text: SPR Biacore
parameter_measured: log10 of Kd (log10 of the value in nM)
log10 Kd, nM

Field: example entries. Status: answers known.
- Clone with L1_3-5 (antibody, V domains shown, based on hu1C7.v2) VH: EVQLLESGGGLVQPGGSLRLSCAASGFTFSSYGMSWVRQAPGKGLEWVASISGDGGSYIHYADSVKGRFTISRDNSKNTLYLQMNSLRAEDTAVYYCARLPYWGQGTLVTVSS VL: DIVMTQSPDSLAVSLGERATINCKSSQSLHMSGTQKDYLVWYQQKPGQPPKLLIYWASTRESGVPDRFSGSGSGTDFTLTISSLQAEDVAVYYCQQYNSYPLTFGQGTKVEIK: -0.38
- Clone with L1_3-9 (antibody, V domains shown, based on hu1C7.v2) VH: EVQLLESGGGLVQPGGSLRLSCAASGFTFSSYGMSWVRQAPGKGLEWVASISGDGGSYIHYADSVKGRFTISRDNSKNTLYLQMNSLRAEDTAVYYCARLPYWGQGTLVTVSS VL: DIVMTQSPDSLAVSLGERATINCKSSQSLHRSGNQKDYLVWYQQKPGQPPKLLIYWASTRESGVPDRFSGSGSGTDFTLTISSLQAEDVAVYYCQQYNSYPLTFGQGTKVEIK: -0.87
- Clone with H2_4 (antibody, V domains shown, based on hu1C7.v2) VH: EVQLLESGGGLVQPGGSLRLSCAASGFTFSSYGMSWVRQAPGKGLEWVASISGDAGSYIHYADSVKGRFTISRDNSKNTLYLQMNSLRAEDTAVYYCARLPYWGQGTLVTVSS VL: DIVMTQSPDSLAVSLGERATINCKSSQSLLNSGNQKNYLTWYQQKPGQPPKLLIYWASTRESGVPDRFSGSGSGTDFTLTISSLQAEDVAVYYCQQYNSYPLTFGQGTKVEIKR: 0.81

Prompt: Need log10 of Kd, item Clone with H1_4-3 (antibody, V domains shown, based on hu1C7.v2) VH: EVQLLESGGGLVQPGGSLRLSCAASGFMFSGPGMSWVRQAPGKGLEWVASISGDGGSYIHYADSVKGRFTISRDNSKNTLYLQMNSLRAEDTAVYYCARLPYWGQGTLVTVSS VL: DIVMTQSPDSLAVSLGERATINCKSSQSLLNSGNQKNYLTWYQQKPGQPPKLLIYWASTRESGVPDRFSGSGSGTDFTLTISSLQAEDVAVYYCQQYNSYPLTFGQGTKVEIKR
Response: -0.30

Prompt: Need log10 of Kd, item Clone with L1_3-4 (antibody, V domains shown, based on hu1C7.v2) VH: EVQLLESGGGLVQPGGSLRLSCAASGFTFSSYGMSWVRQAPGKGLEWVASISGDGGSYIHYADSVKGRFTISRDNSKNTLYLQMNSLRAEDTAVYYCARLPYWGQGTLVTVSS VL: DIVMTQSPDSLAVSLGERATINCKSSQSLHNSGTQKDYLVWYQQKPGQPPKLLIYWASTRESGVPDRFSGSGSGTDFTLTISSLQAEDVAVYYCQQYNSYPLTFGQGTKVEIK
Response: -0.69

This collection of values is drawn from patent US20200216522A1.
